Hello, the source for this data is BindingDB's records for doi:10.1016/j.bmcl.2005.11.067, in case you need it.

Please go through the items and note down their Ki.
targetOrSystem: Alpha-1A/Alpha-1B/Alpha-1D adrenergic receptor (Rattus norvegicus, UniProt P15823+P23944+P43140)
Sequence (P15823 whole entry): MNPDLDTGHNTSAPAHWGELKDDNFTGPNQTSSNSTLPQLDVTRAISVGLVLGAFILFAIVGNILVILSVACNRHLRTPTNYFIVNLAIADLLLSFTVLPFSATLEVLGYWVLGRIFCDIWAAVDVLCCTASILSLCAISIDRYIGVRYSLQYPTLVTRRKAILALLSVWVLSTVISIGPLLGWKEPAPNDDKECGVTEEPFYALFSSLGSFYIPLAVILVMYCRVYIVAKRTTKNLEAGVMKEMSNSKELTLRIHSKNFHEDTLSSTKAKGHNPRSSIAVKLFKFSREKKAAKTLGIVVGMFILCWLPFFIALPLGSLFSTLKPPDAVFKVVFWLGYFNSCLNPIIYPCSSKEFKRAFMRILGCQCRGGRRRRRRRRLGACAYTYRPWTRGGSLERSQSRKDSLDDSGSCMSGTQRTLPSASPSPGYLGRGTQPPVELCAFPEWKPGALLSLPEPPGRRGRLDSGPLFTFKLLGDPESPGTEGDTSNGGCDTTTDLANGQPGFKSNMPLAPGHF
Sequence (P43140 whole entry): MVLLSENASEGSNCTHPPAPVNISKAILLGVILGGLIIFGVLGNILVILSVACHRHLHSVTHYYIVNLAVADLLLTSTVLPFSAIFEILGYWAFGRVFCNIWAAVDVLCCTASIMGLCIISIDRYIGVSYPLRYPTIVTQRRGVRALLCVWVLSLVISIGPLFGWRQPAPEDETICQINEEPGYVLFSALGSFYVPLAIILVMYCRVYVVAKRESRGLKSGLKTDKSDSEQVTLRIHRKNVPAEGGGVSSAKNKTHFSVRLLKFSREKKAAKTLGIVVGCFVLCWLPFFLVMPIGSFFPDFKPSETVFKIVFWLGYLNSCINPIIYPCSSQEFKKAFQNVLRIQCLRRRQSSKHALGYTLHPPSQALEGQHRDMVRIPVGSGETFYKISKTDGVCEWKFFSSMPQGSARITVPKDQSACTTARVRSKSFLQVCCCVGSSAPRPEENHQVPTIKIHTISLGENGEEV
Sequence (P23944 whole entry): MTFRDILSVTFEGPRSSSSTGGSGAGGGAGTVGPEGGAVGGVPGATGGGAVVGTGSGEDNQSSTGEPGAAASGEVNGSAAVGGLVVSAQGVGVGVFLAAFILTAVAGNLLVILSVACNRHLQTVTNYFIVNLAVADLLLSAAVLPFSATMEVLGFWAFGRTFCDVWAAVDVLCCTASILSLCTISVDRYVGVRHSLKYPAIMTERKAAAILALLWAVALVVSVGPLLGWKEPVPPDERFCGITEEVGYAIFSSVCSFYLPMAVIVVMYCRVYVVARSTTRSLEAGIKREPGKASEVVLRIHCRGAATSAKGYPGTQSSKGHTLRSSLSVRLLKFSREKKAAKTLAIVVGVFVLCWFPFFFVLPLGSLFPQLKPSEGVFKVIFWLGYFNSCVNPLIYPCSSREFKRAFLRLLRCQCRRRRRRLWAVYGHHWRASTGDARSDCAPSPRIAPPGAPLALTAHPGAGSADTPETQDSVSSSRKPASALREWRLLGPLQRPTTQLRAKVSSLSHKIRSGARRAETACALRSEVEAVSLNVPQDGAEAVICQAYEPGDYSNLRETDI
procedureSummary: Displacement of [3H]prazosin from alpha-1 adrenergic receptor in rat cortex

Item: CC(C)(CCCN1CCCC(c2cnco2)C1)S(=O)(=O)c1ccccc1 (centres undefined) | Ki: > 4 µM

For CC(C)(CCCN1CCCC(c2ccccc2)C1)S(=O)(=O)c1ccccc1 (centres undefined) the compound record lists Ki as 0.54 µM

For this compound ( "CCOC(=O)[C@@H]1CCCN(CCCC(C)(C)S(=O)(=O)c2ccccc2)C1" ), measured Ki is > 4 µM

The compound listed as CC(C)(CCCN1CCCC(C(F)(F)F)C1)S(=O)(=O)c1ccccc1 (centres undefined) shows Ki equal to > 4 µM
